- target desc: T1, CD27 expressed on the cell surface (HT1080_CD27 cells) (human, UniProt P26842 20-260)
- T1 construct: whole, on cells; also called K562_CD27
- T1 sequence (looked up): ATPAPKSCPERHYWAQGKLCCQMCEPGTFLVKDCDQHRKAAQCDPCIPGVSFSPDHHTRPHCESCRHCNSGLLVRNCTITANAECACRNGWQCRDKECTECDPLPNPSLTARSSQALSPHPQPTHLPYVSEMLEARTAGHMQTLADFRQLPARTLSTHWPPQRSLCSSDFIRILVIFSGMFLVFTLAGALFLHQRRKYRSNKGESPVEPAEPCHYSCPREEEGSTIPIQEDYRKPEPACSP
- method notes: cellular binding assay, HT1080_CD27 cells; note: test concentration or dose not given here
property measured: Cellular binding assay [RFU] (RFU)

P018.S.03.A.H02 (antibody, V domains shown, V regions on human Ig constant parts; also called AB27_60) VH: QSLEESGGRLMTPGGSLTLTCTVSGFSLSDYNMQWVRQAPGEGLEWIGIISLGGTTDYANWVKGRFTISKTSTTVDLKMTSLTASDTATYFCARDPAGGNWAELDLWGQGTLVTVSS VL: DIVMTQTPASVSEPVGGTVTIKCQASQSISSWLSWFQQKPGQPPKLLIYDASTLASGVPSRFKGSGSGTEFTLTISDLESADAATYYCQQGSTISNVDNAFGGGTEVVVK ... 395
P018.S.01.A.A04 (antibody, V domains shown, V regions on human Ig constant parts; also called AB27_1) VH: QSVEESGGRLVTPGTPLTLTCTVSGFSLSRYWVSWVRQAPGKGLEAIGVIDNGDTAYYASWAKGRFTISKTSSITVDLKMTSLTTEDTATYFCTREGADHSGQDLWGQGTLVTVSS VL: AAVLTQTPSPVSAAVGGTVTINCQASQSVISNNDLSWYQQKPGQPPKLLIYRASNLASGVPSRFEGSGSGTQFTLTISDLESEDAATYYCQGGYAGIVDRRPFGGGTEVVVK ... 315
P018.S.10.A.H02 (antibody, V domains shown, V regions on human Ig constant parts; also called AB27_185) VH: QSLEESGGRLVTPGGSLTLTCTVSGIDLSSYAMGWFRQAPGKGLEYIGIIYSSGSTWFANWVKGRFTISKTSTTVDLKMTSLTTEDTATYFCARYSAADHGDKFKLWGQGTLVTVSS VL: AAVLTQTPSPVSAAVGGTVSISCQSSKNIFDNTRLSWFQQKPGQPPKQLIYGASTLASGVPSRFSGSGSGTQFTLTISGVQSDDAATYYCLGEYSSDSDTSFGGGTEVVVK ... 144
P018.S.10.A.B01 (antibody, V domains shown, V regions on human Ig constant parts; also called AB27_166) VH: QSLEESGGRLVTPGTPLTLTCTASGFSLSSYYMSWVRQAPGKGLEWIGIIDRAGTTYYATWAKGRFTISRTSTTVDLKMTSPTTEDTGTYFCARNFIYGVGTYYGSDLWGQGTLVTVSS VL: DVVMTQTPASVSDPVGGTVTIKCQASESISRRLAWYQQKPGQPPKLLIYGASDLASGVPSRFSGSGSGTEFTLTISGVQSDDAATYYCQDTDYGSGHLGAFGGGTEVVVK ... 333
P018.S.07.A.F03 (antibody, V domains shown, V regions on human Ig constant parts; also called AB27_127) VH: QSLEESGGRLVTPGTPLTLTCTASGFSLSNYYITWVRQAPGEGLEWIGTISTAGNTYFASWANGRFTISRTSTTVDLKMTSPTTEDTATYFCARDGAGDSNYYRNLWGQGTLVTVSS VL: DIVLTQTPASVEAAVGGTVTIKCQASQSIDRFLAWYQQKPGQPPKLLIVDASTLESGVPSRFSGSGSGTEFTLTISDLESDNAATYYCQQGYSISDIDNVFGGGTEVVVK ... 380
